target: Human Fc (human); experiment: ELISA, negative control
Quantity measured: optical density (OD)
Give bare numbers, in OD.

Would you please look over these solved cases?
>>> readout_value("373_E12 (antibody, V domains shown) VH: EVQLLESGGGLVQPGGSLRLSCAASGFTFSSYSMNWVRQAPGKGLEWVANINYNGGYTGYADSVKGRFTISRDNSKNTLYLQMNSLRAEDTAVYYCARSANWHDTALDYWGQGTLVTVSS VL: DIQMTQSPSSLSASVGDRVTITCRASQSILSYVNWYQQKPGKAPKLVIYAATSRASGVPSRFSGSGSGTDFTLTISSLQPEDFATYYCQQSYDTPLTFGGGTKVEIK")
0.17
>>> readout_value("373_H01 (antibody, V domains shown) VH: EVQLLESGGGLVQPGGSLRLSCAASGFTFDSYSMNWVRQAPGKGLEWVANINYNGGYTGYADSVKGRFTISRDNSKNTLYLQMNSLRAEDTAVYYCARSANWHDTALDYWGQGTLVTVSS VL: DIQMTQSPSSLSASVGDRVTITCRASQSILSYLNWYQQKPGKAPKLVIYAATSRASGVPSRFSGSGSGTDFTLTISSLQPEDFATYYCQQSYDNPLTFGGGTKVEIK")
0.198

Next item in the queue.
Entry 368_A09 (antibody, V domains shown) VH: EVQLLESGGGLVQPGGSLRLSCAASGFTFDSYSMNWVRQAPGKGLEWVSGINYNGGYTSYADSVKGRFTISRDNSKNTLYLQMNSLRAEDTAVYYCARSANWHDTHLDYWGQGTLVTVSS VL: DIQMTQSPSSLSASVGDRVTITCRASQSILSYVNWYQQKPGKAPKLLIYAVTSRASGVPSRFSGSGSGTDFTLTISSLQPEDFATYYCQQSYDSPLTFGGGTKVEIK has what optical density? 0.277
